Test system: CEM cells HIV-1 protection, formazan growth assay
Test: NCI AIDS Antiviral Assay
Settings: measured here: growth of uninfected CEM cells
experimental.endpoint: IC50 (µM)
State the answer as a number, implicitly in µM.

For O=C1OCOC1C1OCOC1=O (stereo not given) , write its IC50.
19.1

###

System: CEM cells HIV-1 protection, formazan growth assay
Assay: NCI AIDS Antiviral Assay;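 active means compounds giving half or more protection of infected cells from virus-caused growth loss, again on retest; inactive means the rest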
Your answer must be one of the following: 1 = active, -1 = inactive

compound	assigned.category
Cc1ccccc1Cn1nc2ccccc2cc1=O	-1

Could you now consider this next compound?
Hello, I am checking results. What call was entered for COC(=O)c1ccc(C)cc1C1CN=NC12Cc1c(C)cccc1C2=O (stereo not drawn) ?
-1

###

System: CEM cells HIV-1 protection, formazan growth assay
Experiment: NCI AIDS Antiviral Assay;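 active = compounds giving half or more protection of infected cells from virus-caused growth loss, again on retest; inactive = the rest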
Protocol: The ability of compounds to protect human CEM cells from HIV-1 infection is measured as a screen for new compounds capable of inhibiting the HIV virus. Five concentrations of drug were tested on uninfected and infected cells and cell growth was measured using a soluble formazan assay. […] Compounds that provided at least 50% protection were retested. Compounds that provided at least 50% protection on retest were listed as moderately active. […]
Classes to choose from: active, inactive

compound	assigned.category
O=C1NC(CSSCC2NC(=O)N(c3ccccc3)C2=O)C(=O)N1c1ccccc1 (configuration not stated)	inactive

I would be grateful if you could indicate the recorded call for CCCC1(N2C(=O)c3ccc4c5c(ccc(c35)C2=O)N(C2(CCC)CCCCC2)C4=O)CCCCC1 .
inactive

Please share the test call associated with CC[C@@H](CCCCC1CC[C@H]2CC(=O)C[C@@H]12)OC (some centres not stated) .
inactive

Status in this test for COI1NC(=O)c2ccccc21 ?
active

Each compound tested received a call. Report the one for N#CC(C#N)=Cc1ccc(Oc2ccccc2)cc1 .
inactive

Hi, sorry to bother you, what did the test record for COc1ccc(Cl)cc1NC(=O)c1ccco1 ?
inactive

Per the records of this test, what outcome belongs to COC(=O)C1Cc2ccc(O)c(O)c2CN1 (configuration not stated) ?
inactive

Would you mind telling me which call this test gave CN(C(=O)c1ccc2c(c1)sc1c(=O)n(C)c3ccccc3c12)c1ccccc1 ?
inactive

I would be grateful if you could indicate the recorded call for Cc1c(C)c2c(c(N)c1C#N)C(=O)N(NC(=O)c1ccccc1)C2=O .
inactive

In this assay, the call recorded for C[N+]1(CCCl)CCc2cc([N+](=O)[O-])ccc2C1 (configuration not stated) was what?
inactive

For O=C(CBr)N1CCC2(CC1)SSC1(CCN(C(=O)CBr)CC1)S2 , what call appears in the results of this test?
inactive

Fill in: this test's call for CCCCOC(=O)NC(Nc1ccc(S(=O)(=O)Nc2ncccn2)cc1)(C(F)(F)F)C(F)(F)F is ___
inactive

I'd appreciate the recorded outcome for O=C1N=C2C=CC=CN2CC1O (configuration not stated) from this test.
inactive

Per the assay record, what outcome was assigned to NS(=O)(=O)c1cc2c(cc1C(F)(F)F)NCNS2(=O)=O ?
inactive

How was O=c1cnn(C2OC(CO)C(F)C2F)c(=O)[nH]1 (configuration not stated) classified in this test?
inactive

What did the test return for NC(Cc1ccc[se]1)C(=O)O (configuration not stated) ?
inactive

###

Recorded IC50 for the following molecules
System: CEM cells HIV-1 protection, formazan growth assay
Test: NCI AIDS Antiviral Assay
Conditions: measured here: growth of uninfected CEM cells
# number only, unit µM dropped from output

molecule	experimental.endpoint	units.text	result
COCCn1cnc2c(Cl)nc(Nc3ccccc3)nc21	IC50	µM	28.8
O=C(c1nc2ccc([N+](=O)[O-])cc2[nH]c1=O)C(O)c1ccc2c(c1)OCO2 (stereo not given)	IC50	µM	245
O=C1NC(=S)S/C1=C\c1ccc(Cl)cc1	IC50	µM	66.1
CC1(C)CCC(C)(C)c2cc(C(=O)Nc3ccc(C(=O)O)cc3)ccc21	IC50	µM	115
CC1OC(CC(=O)O)CC2=C1C(=O)c1c(O)cccc1C2=O (stereo not given)	IC50	µM	0.0447
CC1=C(C(=O)Nc2cc(F)c(F)cc2F)C(c2ccc([N+](=O)[O-])cc2)C(C(=O)Nc2cc(F)c(F)cc2F)=C(C)N1	IC50	µM	72.4
NCCN.O=C([O-])CC(O)C(=O)[O-].[Pt+4] (stereo not given)	IC50	µM	12
CC(=O)c1sc2c(c1OC(=O)c1cccs1)c(=O)n(-c1ccccc1)c(=S)n2-c1ccccc1	IC50	µM	3.8
Nc1nc(Nc2ccc(Cl)c(Cl)c2)c(N=O)c(=O)[nH]1	IC50	µM	3.72
CC(=O)/C=C/CCC1CCC(=O)C1(C)C(=O)OC(C)(C)C (stereo not given)	IC50	µM	39.8

Tell me its IC50 on CEM cells HIV-1 protection, formazan growth assay: O=P1(Nc2ccccc2)OCCCN1Cc1ccc(Cl)c(Cl)c1 (stereo not given)
53.7

Supply IC50 measured with CEM cells HIV-1 protection, formazan growth assay for Nc1ccn(C2OC(COC(=O)c3ccccc3)C(OC(=O)c3ccccc3)C2I)c(=O)n1 (stereo not given) .
35.5

# assay system CEM cells HIV-1 protection, formazan growth assay: give IC50 of CCC(C)C(C1=C(O)c2ccccc2C(=O)C1=O)C1=C(O)c2ccccc2C(=O)C1=O (stereo not given)
87.1

###

System: CEM cells HIV-1 protection, formazan growth assay
Assay: NCI AIDS Antiviral Assay
Details: measured here: growth of uninfected CEM cells
experimental.endpoint: IC50

compound	experimental.endpoint	result
COC(=O)C1=C(C)C(=O)[C@]23C(CCCC[C@H]12)C(=O)[C@H](C(=O)OC)C3C (stereo not given in full)	IC50	> 200 µM

Look up and state reported IC50 for COc1cccc(C2NC(=O)c3c(n[nH]c3N)S2)c1O (stereo not given)
> 200 µM

Given the compound Clc1ccc2nc3c(c(-c4ccccc4)nn3-c3ccccc3)c(-c3ccccc3)c2c1 , write its reported IC50.
> 100 µM

Item O=C(O)C(=Cc1ccc(-c2ccc([N+](=O)[O-])cc2)o1)C(=O)O : provide IC50
> 200 µM

Report measured IC50; entry is Cc1cccc(/C(Br)=C2/OC(=O)c3ccccc32)c1
182 µM

###

System: CEM cells HIV-1 protection, formazan growth assay
Assay: NCI AIDS Antiviral Assay
Conditions: measured here: growth of uninfected CEM cells
experimental.endpoint: pIC50
Please treat pIC50 as minus the base-10 logarithm of the molar concentration.

Worked examples, 2 compounds total:
O=C1/C(=C/c2cccc(Br)c2)Cc2ccccc21 4.77
CC1(C)CC(=O)C(CC2C(=O)CCCC2=O)C(=O)C1 3.05

Okay, next one:
Indicate the recorded pIC50 value for this compound: C[CH2][Sn]([CH2]C)([O]C(=O)c1ccccc1OC)[O][Sn]([CH2]C)([CH2]C)[O]C(=O)c1ccccc1OC
4.53

###

System: CEM cells HIV-1 protection, formazan growth assay
Assay: NCI AIDS Antiviral Assay
Conditions: measured here: growth of uninfected CEM cells
experimental.endpoint: IC50 (µM)
Enter your answer as a number in µM; do not include the unit.

Example compounds with recorded IC50:
compound	IC50 [µM]
O=C(O)CN(CCN(CC(=O)O)CC(=O)O)CC(=O)O.[Cu+2].[Na+]	8.91
CCC1(O)N=C(c2ccccc2)c2ccccc2-n2cccc21 (stereo unspecified)	166
Clc1nn2nnnc2c2ccccc12	1.23
C1CN(CCSSCCN2CCOCC2)CCO1	166
Cc1cc(NS(=O)(=O)c2ccc(Nc3c4ccccc4nc4ccc(C(=O)Nc5ccc(S(=O)(=O)N=C(N)N)cc5)cc34)cc2)no1	110

Read off the recorded IC50 for COc1ccc(-c2c3c(nc4nc(SC)nc(SC)c24)CCCC3)cc1OC
81.3

State, in one line, measured IC50 of CCCCC1(OC(=O)CCC(=O)O)CCC2(CCC(C)C(C/C=C(C)/C=C/C(O)C(C)/C=C/C(=O)O)O2)OC1CC/C(C)=C/C(=O)O (stereo unspecified)
1.29

Answer with the recorded IC50 of [N-]=[N+]=NC1CC(n2cc(CO)c(=O)[nH]c2=O)OC1CO (stereo unspecified) only.
240

Report IC50, nothing else, for this compound: COc1ccc(CCN(C)CCC[C@](C#N)(c2ccc(OC)c(OC)c2)C(C)C)cc1OC
38.9

###

System: CEM cells HIV-1 protection, formazan growth assay
Experiment: NCI AIDS Antiviral Assay
Entries and their EC50 values follow.

# count of solved cases: 5
compound	EC50
O=C1c2c(O)cccc2C(C(=O)CCCCC(=O)C2c3cccc(O)c3C(=O)c3c(O)cccc32)c2cccc(O)c21	> 6.76 µM
COC1(c2ccc(Cl)cc2)SC=C(C)n2c1noc2=O (configuration not stated)	> 200 µM
CC(Nc1ccc(Cl)cc1)c1ccncc1 (configuration not stated)	> 200 µM
COc1ccc(-c2cc(=O)c3c(O)c(O)c(OC)cc3o2)cc1O	> 550 µM
CC12CCCCC1CC(=O)/C(=C\O)C2 (configuration not stated)	> 200 µM

Report measured EC50; entry is CC(=O)N=C1N(/C=C2\C(=O)Oc3ccccc3C2=O)C(=O)/C(=C/c2ccc3c(c2)OCO3)N1C
> 200 µM

Give me measured EC50, please, for this compound: CC1(C)C2CCC13CS(=O)(=O)N1O[C@]13C(=O)O2 (some centres not stated)
> 195 µM

For the compound COc1cc(C(c2ccc(N(Cc3ccccc3)Cc3ccccc3)cc2NC(C)=O)c2ccc(N(Cc3ccccc3)Cc3ccccc3)cc2NC(C)=O)ccc1O , give its reported EC50.
> 200 µM

These entries and their values trace back to PubChem BioAssay AID179.
